Entry source: ChEMBL document CHEMBL1136396

# Assayed Target: Coagulation factor X (Homo sapiens)
# Experiment: Binding affinity against the coagulation factor X
Property Name: Ki (µM)
Response body: numeric value in µM, unit text excluded.

The following compounds have reported results that may help.
COc1cccc(C2=NOC(C(=O)Nc3ccc(-c4ccccc4S(N)(=O)=O)cc3)C2)c1 (stereo not drawn); 7.5
NS(=O)(=O)c1ccccc1-c1ccc(NC(=O)C2CC(c3ccc(Br)cc3)=NO2)cc1 (stereo not drawn); 4.1
NS(=O)(=O)c1ccccc1-c1ccc(NC(=O)C2CC(c3ccc(F)c(F)c3)=NO2)cc1 (stereo not drawn); 4.6
NS(=O)(=O)c1ccccc1-c1ccc(NC(=O)C2CC(c3cccc(F)c3)=NO2)cc1 (stereo not drawn); 7.8
CCCCCC1=NOC(C(=O)Nc2ccc(-c3ccccc3S(N)(=O)=O)cc2)C1 (stereo not drawn); 4.5

// fetch Ki for NS(=O)(=O)c1ccccc1-c1ccc(NC(=O)C2CC(c3ccc(Cl)cc3)=NO2)cc1 (stereo not drawn) ; system: Coagulation factor X (Homo sapiens)
1

State Ki (Coagulation factor X (Homo sapiens)) of NS(=O)(=O)c1ccccc1-c1ccc(NC(=O)C2CC(c3cccc(Cl)c3)=NO2)cc1 (stereo not drawn) .
5.9

Please respond with reported Ki (system Coagulation factor X (Homo sapiens)) for NS(=O)(=O)c1ccccc1-c1ccc(NC(=O)C2CC(c3ccc(I)cc3)=NO2)cc1 (stereo not drawn) .
1.9

----------
# Assayed Target: Coagulation factor X (Homo sapiens, UniProt P00742)
# Sequence (P00742 41-179 limits assumed): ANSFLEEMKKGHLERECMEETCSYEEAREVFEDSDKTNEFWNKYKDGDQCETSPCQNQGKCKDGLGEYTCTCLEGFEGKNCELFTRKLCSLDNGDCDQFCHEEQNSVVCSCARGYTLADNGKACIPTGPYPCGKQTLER
# Sequence (P00742 235-488 limits assumed): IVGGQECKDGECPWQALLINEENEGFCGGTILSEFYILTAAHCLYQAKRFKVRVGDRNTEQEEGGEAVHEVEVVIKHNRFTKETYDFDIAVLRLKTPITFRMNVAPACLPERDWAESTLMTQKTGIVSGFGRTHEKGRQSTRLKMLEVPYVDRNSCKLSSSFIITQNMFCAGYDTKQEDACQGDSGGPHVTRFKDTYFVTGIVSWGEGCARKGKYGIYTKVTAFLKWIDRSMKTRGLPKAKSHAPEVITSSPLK
# Experiment: Binding affinity against the Factor Xa (FXa)
Property: Ki; scope: individual compounds
Return type: number; implicit unit µM.

Example compounds with recorded Ki:
NS(=O)(=O)c1ccccc1-c1ccc(NC(=O)C2CC(c3ccc4c(c3Cl)OCO4)=NO2)cc1 (stereo unspecified); 1.7
NS(=O)(=O)c1ccccc1-c1ccc(NC(=O)C2CC(c3ccccc3)=NO2)cc1 (stereo unspecified); 11

Recall and state the measured Ki for NS(=O)(=O)c1ccccc1-c1ccc(NC(=O)C2CC(c3ccc4ccccc4c3)=NO2)cc1 (stereo unspecified) .
20

----------
In this section, each of the molecules is paired with its reported pKi.
# Assayed Target: Coagulation factor X (Homo sapiens, UniProt P00742)
# Experiment: Binding affinity against the Factor Xa (FXa)
// pKi here means minus log10 of the molar concentration (mol/L)

NS(=O)(=O)c1ccccc1-c1ccc(NC(=O)C2CC(/C=C/c3ccccc3)=NO2)cc1 (stereo not drawn); 5.64
NS(=O)(=O)c1ccccc1-c1ccc(NC(=O)C2CC(c3ccc4c(c3)OCO4)=NO2)cc1 (stereo not drawn); 6.31
NS(=O)(=O)c1ccccc1-c1ccc(NC(=O)C2CC(c3ccccc3Cl)=NO2)cc1 (stereo not drawn); 5.77
NS(=O)(=O)c1ccccc1-c1ccc(NC(=O)C2CC(c3ccc(Cl)cc3Cl)=NO2)cc1 (stereo not drawn); 5.77
COc1cc(C2=NOC(C(=O)Nc3ccc(-c4ccccc4S(N)(=O)=O)cc3)C2)ccc1O (stereo not drawn); 4.70
NS(=O)(=O)c1ccccc1-c1ccc(NC(=O)C2CC(c3ccc(O)cc3)=NO2)cc1 (stereo not drawn); 4.66
CCCCCCOc1ccccc1C1=NOC(C(=O)Nc2ccc(-c3ccccc3S(N)(=O)=O)cc2)C1 (stereo not drawn); 5.74
NS(=O)(=O)c1ccccc1-c1ccc(NC(=O)C2CC(c3cccs3)=NO2)cc1 (stereo not drawn); 5.89
Cc1ccc(C2=NOC(C(=O)Nc3ccc(-c4ccccc4S(N)(=O)=O)cc3)C2)cc1 (stereo not drawn); 5.68
NS(=O)(=O)c1ccccc1-c1ccc(NC(=O)C2CC(c3ccc(C(F)F)cc3)=NO2)cc1 (stereo not drawn); 5.80

Please report the measured pKi for COc1ccc(C2=NOC(C(=O)Nc3ccc(-c4ccccc4S(N)(=O)=O)cc3)C2)cc1 (stereo not drawn) tested on Coagulation factor X (Homo sapiens, UniProt P00742).
6.15

Look up and report pKi, with Coagulation factor X (Homo sapiens, UniProt P00742) as system, for NS(=O)(=O)c1ccccc1-c1ccc(NC(=O)C2CC(c3cccc(C(F)(F)F)c3)=NO2)cc1 (stereo not drawn)
4.77

Fill in: pKi on Coagulation factor X (Homo sapiens, UniProt P00742), entry NS(=O)(=O)c1ccccc1-c1ccc(NC(=O)C2CC(c3ccc(Cl)c(F)c3)=NO2)cc1 (stereo not drawn)
5.60

----------
# Assayed Target: UniProt:P00742
# Experiment: Binding affinity against Coagulation factor X
Property Name: pKi
// scale note: pKi = -log10(conc_M); give the bare number

Specify pKi for Nc1cc(C2=NOC(C(=O)Nc3ccc(-c4ccccc4S(N)(=O)=O)cc3)C2)ccc1Cl (stereo unspecified) and stop.
6.89

----------
# Assayed Target: Coagulation factor X (Homo sapiens, UniProt P00742)
# Experiment: Binding affinity against the Factor Xa (FXa)
The molecules listed here are annotated with their Ki.

NS(=O)(=O)c1ccccc1-c1ccc(NC(=O)C2CC(c3ccc(-c4ccccc4)cc3)=NO2)cc1 (centres undefined); 1100 nM
NS(=O)(=O)c1ccccc1-c1ccc(NC(=O)C2CC(CCc3ccccc3)=NO2)cc1 (centres undefined); > 30000 nM
NS(=O)(=O)c1ccccc1-c1ccc(NC(=O)C2CC(c3cccc(I)c3)=NO2)cc1 (centres undefined); 10000 nM
NS(=O)(=O)c1ccccc1-c1ccc(NC(=O)C2CC(c3cccc(Br)c3)=NO2)cc1 (centres undefined); > 30000 nM
NS(=O)(=O)c1ccccc1-c1ccc(NC(=O)C2CC(c3ccc4c(c3[N+](=O)[O-])OCO4)=NO2)cc1 (centres undefined); 2400 nM
NS(=O)(=O)c1ccccc1-c1ccc(NC(=O)C2CC(c3ccc(Cl)c(Cl)c3)=NO2)cc1 (centres undefined); 2700 nM

Write down Ki measured for item NS(=O)(=O)c1ccccc1-c1ccc(NC(=O)C2CC(/C=C/c3ccco3)=NO2)cc1 (centres undefined)
2300 nM

Note down Ki recorded for CCCCCCCCCCC1=NOC(C(=O)Nc2ccc(-c3ccccc3S(N)(=O)=O)cc2)C1 (centres undefined)
17000 nM

Determine from records and report Ki for NS(=O)(=O)c1ccccc1-c1ccc(NC(=O)C2CC(c3cc(I)c(O)c(I)c3)=NO2)cc1 (centres undefined)
> 30000 nM

----------
# Assayed Target: Coagulation factor X (Homo sapiens)
# Experiment: Binding affinity against the Factor Xa (FXa)
Property Name: Ki

Here is how some compounds turned out for Ki.
COc1ccc2ccccc2c1C1=NOC(C(=O)Nc2ccc(-c3ccccc3S(N)(=O)=O)cc2)C1 (stereo not drawn); > 3 µM
NS(=O)(=O)c1ccccc1-c1ccc(NC(=O)C2CC(c3cccc4ccccc34)=NO2)cc1 (stereo not drawn); > 30 µM

Now turn to the next compound.
Output Ki of NS(=O)(=O)c1ccccc1-c1ccc(NC(=O)C2CC(c3cccc(O)c3)=NO2)cc1 (stereo not drawn)
> 3 µM
